Each recorded value in this set is attributed to the supplement of paper PMC9446081.

I'd be grateful if you could share measured relative enzymatic activity for these entries.
# systemUnderTest: DNA helicase (UniProt P0ACB1)
# Sequence (P0ACB1 whole entry): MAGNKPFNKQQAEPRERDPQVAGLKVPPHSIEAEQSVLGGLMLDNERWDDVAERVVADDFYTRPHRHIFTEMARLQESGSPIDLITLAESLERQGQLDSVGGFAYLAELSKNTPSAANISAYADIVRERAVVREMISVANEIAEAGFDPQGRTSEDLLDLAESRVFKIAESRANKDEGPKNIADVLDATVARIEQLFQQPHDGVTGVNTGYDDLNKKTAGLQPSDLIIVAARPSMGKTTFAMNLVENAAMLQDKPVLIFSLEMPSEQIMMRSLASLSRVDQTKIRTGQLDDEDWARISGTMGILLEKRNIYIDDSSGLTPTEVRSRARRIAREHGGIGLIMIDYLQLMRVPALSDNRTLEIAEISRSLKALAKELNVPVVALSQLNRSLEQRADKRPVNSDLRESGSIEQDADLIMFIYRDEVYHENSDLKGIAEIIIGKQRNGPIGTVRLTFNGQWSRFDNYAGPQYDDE
# assayRemarks: relative enzymatic activity vs untreated control (fraction); higher = less inhibition
# experimentalConditions: 100 µM; incubation time: 2 h at 37 C
# output: bare number, no unit

What value of measured relative enzymatic activity is listed for C=C1c2cccc(O)c2C(=O)C2=C(O)C3(O)C(=O)C(C(N)=O)=C(O)C(N(C)C)C3C(O)C12.Cl (configuration not stated) ?
0.143

Repeat for the following compound: CC[C@H]1OC(=O)[C@H](C)[C@@H](O[C@H]2C[C@@](C)(OC)[C@@H](O)[C@H](C)O2)[C@H](C)[C@@H](O[C@@H]2O[C@H](C)C[C@H](N(C)C)[C@H]2O)[C@](C)(OC)C[C@@H](C)C(=O)[C@H](C)[C@@H](O)[C@]1(C)O
0.732

Repeat for the following compound: N[C@@H](C(=O)N[C@@H]1C(=O)N2C(C(=O)O)=C(Cl)CS[C@H]12)c1ccccc1
0.537

Repeat for the following compound: C=CC1=C(C(=O)O)N2C(=O)[C@@H](NC(=O)/C(=N/O)c3csc(N)n3)[C@H]2SC1
0.371

Repeat for the following compound: C=CC1=C(C(=O)O)N2C(=O)[C@@H](NC(=O)/C(=N\O)c3csc(N)n3)[C@H]2SC1
0.523

Repeat for the following compound: Cc1nnc(SCC2=C(C(=O)O)N3C(=O)[C@@H](NC(=O)Cn4cnnn4)[C@H]3SC2)s1
0.348

Repeat for the following compound: N[C@@H](C(=O)N[C@@H]1C(=O)N2C(C(=O)O)=C(Cl)CC[C@H]12)c1ccccc1
0.524

* * *

# Test system: RNA polymerase
# assayRemarks: relative enzymatic activity vs untreated control (fraction); higher = less inhibition
# experimentalConditions: 100 µM; incubation time: 2 h at 37 C
Please use rule met whenever relative enzymatic activity is not below 0.5, and rule not met whenever it is.

# bool: relative enzymatic activity of O=c1[nH]c(=O)n([C@@H]2C[C@@H](O)[C@@H](CO)O2)cc1F >= 0.5
rule met

Repeat for the following molecule: CC(C)(ON=C(C(=O)NC1C(=O)N2C(C(=O)[O-])=C(C[n+]3ccccc3)CSC12)c1csc(N)n1)C(=O)O (centres undefined)
rule not met

Repeat for the following molecule: Oc1c(Cl)cc(Cl)c2cccnc12
rule met

Repeat for the following molecule: COC1C=COC2(C)Oc3c(C)c(O)c4c(O)c(c5c(nc6cc(C)ccn65)c4c3C2=O)NC(=O)C(C)=CC=CC(C)C(O)C(C)C(O)C(C)C(OC(C)=O)C1C (centres undefined)
rule not met

Repeat for the following molecule: CN1CCN(c2cc3c(cc2F)c(=O)c(C(=O)O)cn3-c2ccc(F)cc2)CC1.Cl
rule met

Repeat for the following molecule: O=C1C=CC(=O)N1
rule met

Repeat for the following molecule: CC1(C)S[C@@H]2[C@H](NC(=O)[C@H](NC(=O)N3CCNC3=O)c3ccccc3)C(=O)N2[C@H]1C(=O)O
rule met

Repeat for the following molecule: NC(=O)[C@@H]1CC[C@@H]2CN1C(=O)N2OS(=O)(=O)O
rule met

* * *

# systemUnderTest: GlmU (UniProt A7ZTU1)
# Sequence (A7ZTU1 whole entry, looked up): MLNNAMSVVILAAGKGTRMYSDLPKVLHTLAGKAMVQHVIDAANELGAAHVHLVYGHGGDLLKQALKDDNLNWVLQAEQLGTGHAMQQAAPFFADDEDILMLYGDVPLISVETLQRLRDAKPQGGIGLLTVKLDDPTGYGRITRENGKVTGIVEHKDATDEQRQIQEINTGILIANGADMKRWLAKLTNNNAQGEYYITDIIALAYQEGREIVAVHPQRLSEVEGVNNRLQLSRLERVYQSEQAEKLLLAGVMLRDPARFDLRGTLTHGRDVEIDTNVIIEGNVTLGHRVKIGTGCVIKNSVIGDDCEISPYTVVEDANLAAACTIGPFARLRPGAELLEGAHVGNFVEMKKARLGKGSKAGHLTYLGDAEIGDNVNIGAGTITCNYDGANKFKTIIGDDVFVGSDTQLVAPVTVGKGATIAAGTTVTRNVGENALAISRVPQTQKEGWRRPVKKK
# assayRemarks: relative enzymatic activity vs untreated control (fraction); higher = less inhibition
# experimentalConditions: 100 µM; incubation time: 2 h at 37 C
I'd be grateful if you could share measured relative enzymatic activity for these entries.
# output: bare number, no unit

What value of measured relative enzymatic activity is listed for NC(C(=O)NC1C(=O)N2C(C(=O)O)=C(Cl)CSC12)c1ccccc1 (centres undefined) ?
0.982

Repeat for the following molecule: O=C1C=CC(=O)N1
0.973

Repeat for the following molecule: CC1CCC2(C)C(C=O)=CCCC2C1(C)CC1OC(O)C(=O)C12CO2 (centres undefined)
1.01

Repeat for the following molecule: CN(C)[C@@H]1C(=O)[C@@H](C(N)=O)C(=O)[C@@]2(O)C(=O)[C@@H]3C(=O)c4c(O)c(NC(=O)CN5CCCC5)cc(F)c4C[C@H]3C[C@@H]12
0.945

Repeat for the following molecule: Oc1c(Cl)cc(Cl)c(Cl)c1Cc1c(O)c(Cl)cc(Cl)c1Cl
1.07

Repeat for the following molecule: CN1CCN(c2c(F)cc3c(=O)c(C(=O)O)cn4c3c2SCC4)CC1
0.952

Repeat for the following molecule: CC[C@H]1OC(=O)[C@H](C)[C@@H](O[C@H]2C[C@@](C)(OC)[C@@H](O)[C@H](C)O2)[C@H](C)[C@@H](O[C@@H]2O[C@H](C)C[C@H](N(C)C)[C@H]2O)[C@](C)(OC)C[C@@H](C)C(=O)[C@H](C)[C@@H](O)[C@]1(C)O
1.03

Repeat for the following molecule: O=C1CN(/N=C/c2ccc([N+](=O)[O-])o2)C(=O)N1
0.999

Repeat for the following molecule: CN[C@H]1CN(c2ccc3c(=O)c(C(=O)O)cn(-c4nccs4)c3n2)C[C@@H]1OC
1

* * *

I'd be grateful if you could share measured relative enzymatic activity for these entries.
# Test system: DNA gyrase
# assayRemarks: relative enzymatic activity vs untreated control (fraction); higher = less inhibition
# experimentalConditions: 100 µM; incubation time: 2 h at 37 C
# output: bare number, no unit

What value of measured relative enzymatic activity is listed for CCn1cc(C(=O)O)c(=O)c2cc(F)c(N3CCN(C(=S)Nc4cc(C(F)(F)F)ccc4Cl)CC3)cc21 ?
0.0352

Repeat for the following molecule: CCn1nc(C(=O)O)c(=O)c2cc3c(cc21)OCO3
0.136

Repeat for the following molecule: CC(C)[C@@H](CC[C@@H](C)[C@H]1CC[C@H]2[C@@H]3[C@H](O)C[C@H]4C[C@@H](NCCCNCCCCN)CC[C@]4(C)[C@H]3CC[C@]12C)OS(=O)(=O)O
1.22

Repeat for the following molecule: C=C1c2cccc(O)c2C(=O)C2=C(O)C3(O)C(=O)C(C(N)=O)=C(O)C(N(C)C)C3C(O)C12.Cl (stereo unspecified)
0.0714

Repeat for the following molecule: CC(=O)On1cc(F)c(=O)[nH]c1=O
0.636

Repeat for the following molecule: CC1COc2c(N3CCN(C)CC3)c(F)cc3c(=O)c(C(=O)O)cn1c23 (stereo unspecified)
0.0425

Repeat for the following molecule: CC1(C)S[C@@H]2[C@H](NC(=O)[C@H](NC(=O)N3CCNC3=O)c3ccccc3)C(=O)N2[C@H]1C(=O)O
0.794

Repeat for the following molecule: COc1c(N2CCNC(C)C2)c(F)cc2c(=O)c(C(=O)O)cn(C3CC3)c12 (stereo unspecified)
0.0476

Repeat for the following molecule: CN(C)c1ccc(O)c2c1C[C@H]1C[C@H]3[C@H](N(C)C)C(=O)C(C(N)=O)=C(O)[C@@]3(O)C(=O)[C@H]1C2=O
0.655

Repeat for the following molecule: CN1CCN(c2c(F)cc3c(=O)c(C(=O)O)cn(CCF)c3c2F)CC1
0.024

Repeat for the following molecule: C=CC1=C(C(=O)O)N2C(=O)[C@@H](NC(=O)/C(=N\O)c3csc(N)n3)[C@H]2SC1
0.489

Repeat for the following molecule: C[C@H]1[C@H](NC(=O)/C(=N\OC(C)(C)C(=O)O)c2csc(N)n2)C(=O)N1S(=O)(=O)O
0.898

Repeat for the following molecule: CC[C@@H](C)CCCCC(=O)N[C@@H](CCN)C(=O)N[C@H](C(=O)N[C@@H](CCN)C(=O)N[C@H]1CCNC(=O)[C@H]([C@@H](C)O)NC(=O)[C@H](CCN)NC(=O)[C@H](CCN)NC(=O)[C@H](CC(C)C)NC(=O)[C@@H](Cc2ccccc2)NC(=O)[C@@H](CCN)NC1=O)[C@@H](C)O
1.66

Repeat for the following molecule: C=CC1=C(C(=O)O)N2C(=O)[C@@H](NC(=O)/C(=N/O)c3csc(N)n3)[C@H]2SC1
0.0537

Repeat for the following molecule: CN(C)C1C(O)=C(C(N)=O)C(=O)C2(O)C(O)=C3C(=O)c4c(O)ccc(Cl)c4C(C)(O)C3CC12.Cl (stereo unspecified)
1.15

Repeat for the following molecule: CN(C)c1ccc(O)c2c1CC1CC3C(N(C)C)C(O)=C(C(N)=O)C(=O)C3(O)C(O)=C1C2=O.Cl (stereo unspecified)
0.541

* * *

# systemUnderTest: DNA polymerase (UniProt P10443)
# Sequence (P10443 whole entry): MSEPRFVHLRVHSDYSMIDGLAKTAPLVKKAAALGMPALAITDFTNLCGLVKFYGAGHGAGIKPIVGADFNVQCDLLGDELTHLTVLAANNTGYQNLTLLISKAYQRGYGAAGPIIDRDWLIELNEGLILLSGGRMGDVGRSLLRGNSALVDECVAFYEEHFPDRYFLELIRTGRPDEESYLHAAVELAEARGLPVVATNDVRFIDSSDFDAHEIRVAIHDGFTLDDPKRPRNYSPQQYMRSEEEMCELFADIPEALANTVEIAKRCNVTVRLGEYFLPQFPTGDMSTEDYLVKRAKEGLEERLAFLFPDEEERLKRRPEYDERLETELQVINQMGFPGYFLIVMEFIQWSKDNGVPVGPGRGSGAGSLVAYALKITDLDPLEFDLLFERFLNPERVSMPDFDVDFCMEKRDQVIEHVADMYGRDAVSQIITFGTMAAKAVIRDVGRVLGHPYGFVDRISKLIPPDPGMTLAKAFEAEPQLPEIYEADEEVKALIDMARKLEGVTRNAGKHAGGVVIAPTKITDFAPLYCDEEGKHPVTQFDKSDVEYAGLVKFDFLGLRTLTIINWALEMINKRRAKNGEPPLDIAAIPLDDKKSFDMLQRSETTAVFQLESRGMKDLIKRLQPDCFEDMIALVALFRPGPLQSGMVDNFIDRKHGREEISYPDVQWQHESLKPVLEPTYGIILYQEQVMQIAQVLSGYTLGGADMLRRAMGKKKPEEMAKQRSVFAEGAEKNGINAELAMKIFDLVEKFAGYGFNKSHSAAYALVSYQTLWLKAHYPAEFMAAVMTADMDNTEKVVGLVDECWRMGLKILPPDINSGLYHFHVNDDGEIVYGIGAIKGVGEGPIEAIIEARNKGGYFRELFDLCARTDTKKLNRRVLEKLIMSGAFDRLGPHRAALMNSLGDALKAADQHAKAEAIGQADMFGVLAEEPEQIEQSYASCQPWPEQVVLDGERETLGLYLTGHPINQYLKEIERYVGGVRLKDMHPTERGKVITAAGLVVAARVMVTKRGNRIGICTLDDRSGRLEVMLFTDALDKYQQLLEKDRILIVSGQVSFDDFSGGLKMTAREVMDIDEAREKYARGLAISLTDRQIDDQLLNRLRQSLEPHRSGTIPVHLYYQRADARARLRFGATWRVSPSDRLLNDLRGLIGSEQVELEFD
# assayRemarks: relative enzymatic activity vs untreated control (fraction); higher = less inhibition
# experimentalConditions: 100 µM; incubation time: 2 h at 37 C
I'd be grateful if you could share measured relative enzymatic activity for these entries.
# output: bare number, no unit

What value of measured relative enzymatic activity is listed for CC1COc2c(N3CCN(C)CC3)c(F)cc3c(=O)c(C(=O)O)cn1c23 (centres undefined) ?
1.3

Repeat for the following compound: Cc1cc(O)c(C(=O)NC(C(=O)NC2C(=O)N3C(C(=O)O)=C(CSc4nnnn4C)CSC23)c2ccc(O)cc2)cn1 (centres undefined)
1.34

Repeat for the following compound: COc1ccc2c(c1OC)C(=O)OC2C1c2c(cc3c(c2OC)OCO3)CCN1C.Cl (centres undefined)
1.36

Repeat for the following compound: O=C(O)c1cn(C2CC2)c2cc(N3CCC(O)(COc4ccc(N5C[C@H](CO)OC5=O)cc4F)CC3)c(F)cc2c1=O
1.13

Repeat for the following compound: CON=C(C(=O)NC1C(=O)N2C(C(=O)O)=C(C[N+]3(C)CCCC3)CSC12)c1csc(N)n1.[Cl-] (centres undefined)
1.28

Repeat for the following compound: CC1CCc2cc(F)cc3c(=O)c(C(=O)O)cn1c23 (centres undefined)
1.41

Repeat for the following compound: CC1CCC2(C)C(C=O)=CCCC2C1(C)CC1OC(O)C(=O)C12CO2 (centres undefined)
1.15

Repeat for the following compound: C=CC1=C(C(=O)O)N2C(=O)[C@@H](NC(=O)/C(=N/O)c3csc(N)n3)[C@H]2SC1
1.16

Repeat for the following compound: CCOC(=O)OC(C)OC(=O)C1N2C(=O)C(NC(=O)C(N)c3ccccc3)C2SC1(C)C.Cl (centres undefined)
1.09
